- MEASURED ON: ALK3 (Homo sapiens, UniProt P36894)
- Sequence (P36894 24-532): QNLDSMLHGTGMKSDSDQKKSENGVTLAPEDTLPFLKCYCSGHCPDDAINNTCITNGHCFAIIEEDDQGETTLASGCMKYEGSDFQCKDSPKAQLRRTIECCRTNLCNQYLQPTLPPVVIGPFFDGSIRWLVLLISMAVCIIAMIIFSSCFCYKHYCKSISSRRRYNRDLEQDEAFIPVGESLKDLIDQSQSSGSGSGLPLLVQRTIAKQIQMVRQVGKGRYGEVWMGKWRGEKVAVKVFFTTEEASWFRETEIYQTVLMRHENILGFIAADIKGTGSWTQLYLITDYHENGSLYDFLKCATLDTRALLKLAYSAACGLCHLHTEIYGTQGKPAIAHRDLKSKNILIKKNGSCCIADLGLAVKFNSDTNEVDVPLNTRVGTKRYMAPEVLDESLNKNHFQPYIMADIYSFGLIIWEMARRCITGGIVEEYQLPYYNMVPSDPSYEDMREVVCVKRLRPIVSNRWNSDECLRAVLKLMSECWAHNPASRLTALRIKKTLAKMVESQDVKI
OBSERVED PROPERTY: IC50

Problem: # query: IC50 | item CN1CCN(CCOc2cc(OC3CCOCC3)c3c(Nc4c(Cl)ccc5c4OCO5)ncnc3c2)CC1 [AZD0530, saracatinib] | system: ALK3 (Homo sapiens, UniProt P36894)
Result: 0.003 to 0.03 µM

====

- MEASURED ON: ALK1 (Homo sapiens, UniProt P37023)
- Sequence (P37023 22-503): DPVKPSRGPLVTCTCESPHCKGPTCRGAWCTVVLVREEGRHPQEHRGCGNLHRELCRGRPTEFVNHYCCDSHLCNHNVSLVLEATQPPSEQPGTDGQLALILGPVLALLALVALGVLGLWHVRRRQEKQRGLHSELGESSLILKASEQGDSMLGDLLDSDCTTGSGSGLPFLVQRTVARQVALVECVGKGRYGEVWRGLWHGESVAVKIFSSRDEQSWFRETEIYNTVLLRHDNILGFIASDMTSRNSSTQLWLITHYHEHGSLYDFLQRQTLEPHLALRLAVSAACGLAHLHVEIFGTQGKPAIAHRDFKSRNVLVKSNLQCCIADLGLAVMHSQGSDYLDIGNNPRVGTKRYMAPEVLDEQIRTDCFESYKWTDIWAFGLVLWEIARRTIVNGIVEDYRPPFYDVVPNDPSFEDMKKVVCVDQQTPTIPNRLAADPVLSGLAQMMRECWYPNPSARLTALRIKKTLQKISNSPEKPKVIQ
OBSERVED PROPERTY: IC50

Problem: // lookup IC50 for CN1CCN(CCOc2cc(OC3CCOCC3)c3c(Nc4c(Cl)ccc5c4OCO5)ncnc3c2)CC1
Result: 3 to 30 nM
